Test system: NCI-H720 lung cancer cells
Test: CELLTITER-GLO luminescent cell viability assay, NCI-H720 96-well drug screening plate
Type: cell-based
Settings: FIG. 2 curve fit, 72 hours
measured parameter: pEC50
Numbers only, as −log10 of the molar value.

Please report the recorded pEC50 for CC1=C(CC(=O)O)c2cc(F)ccc2/C1=C\c1ccc([S+](C)[O-])cc1 (stereo not shown) .
4.41

###

System: NCI-H720 lung cancer cells
Assay: CELLTITER-GLO luminescent cell viability assay, NCI-H720 96-well drug screening plate
Type: cell-based
Settings: 72 hours, CellTiter-Glo
measured parameter: pIC50
Answers are plain numbers, as −log10 of the molar value.

Please report the recorded pIC50 for CC1=C(CC(=O)O)c2cc(F)ccc2/C1=C\c1ccc([S+](C)[O-])cc1 (stereo not shown) [sulindac] .
4.37
